Test system: IA-LM
measurement protocol: relative viability (nuclei count vs DMSO), 5 days (fraction); higher = more cells survive
conditions: first compound 1 µM
Listing: relative viability of selected molecules
observable: relative viability

• O=c1cc(N2CCOCC2)oc2c(-c3cccc4c3sc3ccccc34)cccc12 + CC1(C)CCC(c2ccc(Cl)cc2)=C(CN2CCN(c3ccc(C(=O)NS(=O)(=O)c4ccc(N[C@H](CCN5CCOCC5)CSc5ccccc5)c(S(=O)(=O)C(F)(F)F)c4)cc3)CC2)C1 [Navitoclax] (partner 0.5 µM) = 0.876
• O=c1cc(N2CCOCC2)oc2c(-c3cccc4c3sc3ccccc34)cccc12 + C[C@@H](Oc1cc(-c2cnn(C3CCNCC3)c2)cnc1N)c1c(Cl)ccc(F)c1Cl [Crizotinib] (partner 1 µM) = 0.621
• O=c1cc(N2CCOCC2)oc2c(-c3cccc4c3sc3ccccc34)cccc12 + CC(C)C[C@H](NC(=O)[C@H](Cc1ccccc1)NC(=O)c1cnccn1)B(O)O [Bortezomib] (partner 0.002 µM) = 0.74
• CCN(CC)CCCCNc1ncc2cc(-c3cc(OC)cc(OC)c3)c(NC(=O)NC(C)(C)C)nc2n1 + Cc1nc(NC(=O)N2CCC[C@H]2C(N)=O)sc1-c1ccnc(C(C)(C)C(F)(F)F)c1 [Alpelisib] (partner 2 µM) = 0.597

====

Test system: LK-2
measurement protocol: relative viability (nuclei count vs DMSO), 5 days (fraction); higher = more cells survive
conditions: first compound 0.3162 µM
Here the recorded relative viability is given for each entry.
observable: relative viability

* CCN(CC)CCCCNc1ncc2cc(-c3cc(OC)cc(OC)c3)c(NC(=O)NC(C)(C)C)nc2n1 + CCNC(=O)c1noc(-c2cc(C(C)C)c(O)cc2O)c1-c1ccc(CN2CCOCC2)cc1 [Luminespib] (partner 0.01 µM) | 0.183
* CCN(CC)CCCCNc1ncc2cc(-c3cc(OC)cc(OC)c3)c(NC(=O)NC(C)(C)C)nc2n1 + C[C@]1(O)C[C@@H](c2nc(-c3ccc4ccc(-c5ccccc5)nc4c3)c3c(N)nccn32)C1 [Linsitinib] (partner 1 µM) | 0.356

====

Tested on: NCI-H1793
measurement protocol: relative viability (nuclei count vs DMSO), 5 days (fraction); higher = more cells survive
conditions: first compound 0.3162 µM
So basically: is relative viability under 0.5? Then Satisfied. Not under? Then Not satisfied.

• O=c1cc(N2CCOCC2)oc2c(-c3cccc4c3sc3ccccc34)cccc12 + COc1cc2c(Oc3ccc(NC(=O)C4(C(=O)Nc5ccc(F)cc5)CC4)cc3F)ccnc2cc1OCCCN1CCOCC1 [Foretinib] (partner 0.25 µM) = Not satisfied
• CCN(CC)CCCCNc1ncc2cc(-c3cc(OC)cc(OC)c3)c(NC(=O)NC(C)(C)C)nc2n1 + Cc1cc(Nc2cc(N3CCN(C)CC3)nc(Sc3ccc(NC(=O)C4CC4)cc3)n2)n[nH]1 [Tozasertib] (partner 0.1 µM) = Satisfied
• CCN(CC)CCCCNc1ncc2cc(-c3cc(OC)cc(OC)c3)c(NC(=O)NC(C)(C)C)nc2n1 + Nc1ncn([C@H]2C[C@H](O)[C@@H](CO)O2)c(=O)n1 [Decitabine] (partner 2 µM) = Satisfied
• O=c1cc(N2CCOCC2)oc2c(-c3cccc4c3sc3ccccc34)cccc12 + CC(=O)Nc1cccc(-n2c(=O)n(C3CC3)c(=O)c3c(Nc4ccc(I)cc4F)n(C)c(=O)c(C)c32)c1 [Trametinib] (partner 0.02 µM) = Satisfied
• O=c1cc(N2CCOCC2)oc2c(-c3cccc4c3sc3ccccc34)cccc12 + Nc1ncn([C@H]2C[C@H](O)[C@@H](CO)O2)c(=O)n1 [Decitabine] (partner 2 µM) = Not satisfied
